Target: B2 bradykinin receptor (Oryctolagus cuniculus, UniProt Q28642)
Sequence (Q28642 whole entry): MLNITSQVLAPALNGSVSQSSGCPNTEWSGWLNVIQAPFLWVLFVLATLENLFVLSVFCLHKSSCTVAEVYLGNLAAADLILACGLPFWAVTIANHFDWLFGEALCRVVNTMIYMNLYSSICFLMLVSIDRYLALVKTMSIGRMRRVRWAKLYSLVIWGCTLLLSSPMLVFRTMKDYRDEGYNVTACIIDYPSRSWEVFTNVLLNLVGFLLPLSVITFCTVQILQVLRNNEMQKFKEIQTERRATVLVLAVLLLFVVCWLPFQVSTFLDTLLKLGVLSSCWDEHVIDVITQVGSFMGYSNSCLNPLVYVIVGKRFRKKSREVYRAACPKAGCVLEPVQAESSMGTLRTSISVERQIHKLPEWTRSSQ
Experiment: In vitro antagonistic activity against kinin-induced rabbit jugular vein contraction.
Format: functional
Settings: read-out: pA2 (converted)
Square brackets hold non-standard residues; d marks the D form. Peptide text beside a SMILES is read from it. ξ: configuration not given here. Oic(3aξ,7aξ) = O=C(O)[C@@H]1CC2CCCCC2N1; Tic = O=C(O)[C@@H]1Cc2ccccc2CN1; 2Thi = N[C@@H](Cc1cccs1)C(=O)O; GABA = NCCCC(=O)O
observedProperty: log10(Kb) (log10 of the value in nM)
Response schema: value (number) is log10 of Kb in units of nM.

Consider the following illustrative entries.
Tell me the measured log10(Kb) of C[C@@H]1NC(=O)CCCNC(=O)[C@H](CCCN=C(N)N)NC(=O)[C@@H]2CC3CCCCC3N2C(=O)[C@H]2Cc3ccccc3CN2C(=O)[C@H](CO)NC1=O (stereo partly specified) , please. 2.49

Give its log10(Kb) value. Item: NCC(=O)N[C@@H](Cc1ccccc1)C(=O)N1Cc2ccccc2C[C@H]1C(=O)N1C2CCCCC2C[C@H]1C(=O)N[C@@H](CCCN=C(N)N)C(=O)O (stereo partly specified) (H-GF[Tic][Oic(3aξ,7aξ)]R-OH) 2.93

Which log10(Kb) is reported for this molecule? C[C@@H]1NC(=O)CNC(=O)[C@H](CCCN=C(N)N)NC(=O)[C@@H]2CC3CCCCC3N2C(=O)[C@H]2Cc3ccccc3CN2C1=O (stereo partly specified) 2.38

Others:
// query log10(Kb) value for entry NCCCC(=O)N[C@@H](Cc1cccs1)C(=O)N1Cc2ccccc2C[C@H]1C(=O)N1C2CCCCC2C[C@H]1C(=O)N[C@@H](CCCN=C(N)N)C(=O)O (stereo partly specified) (H-[GABA][2Thi][Tic][Oic(3aξ,7aξ)]R-OH) 2.40

Reported log10(Kb), molecule NC(N)=NCCC[C@H](NC(=O)[C@@H]1CC2CCCCC2N1C(=O)[C@@H]1Cc2ccccc2CN1C(=O)[C@H](Cc1cccs1)NC(=O)[C@@H](N)CCCN=C(N)N)C(=O)O (stereo partly specified) (H-R[2Thi][Tic][Oic(3aξ,7aξ)]R-OH) : ____ 2.90

Recorded log10(Kb) of CN1CC(=O)N[C@@H](Cc2cccs2)C(=O)N2Cc3ccccc3C[C@@H]2C(=O)N2C3CCCCC3C[C@H]2C(=O)N[C@@H](CCCN=C(N)N)C1=O (stereo partly specified) , please. 2.34

Consider the molecule C[C@@H]1NC(=O)[C@H](Cc2cccs2)NC(=O)CCCNC(=O)[C@H](CCCN=C(N)N)NC(=O)[C@@H]2CC3CCCCC3N2C(=O)[C@H]2Cc3ccccc3CN2C1=O (stereo partly specified) and give its measured log10(Kb). 1.80

Which measured log10(Kb) value corresponds to N=C(N)NCCC[C@@H]1NC(=O)[C@@H]2CC3CCCCC3N2C(=O)[C@H]2Cc3ccccc3CN2C(=O)[C@H](CO)NC(=O)[C@H](c2ccccc2)NC(=O)CCCNC1=O (stereo partly specified) ? 2.73
